test system: S. cerevisiae expressing PfHSP40, growth rescue, plate reader; assay: Yeast growth rescue from Plasmodium falciparum HSP40 toxicity, dose response confirmatory, plate reader (AID 540271);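 further: yeast growth read after three days of incubation at 30 °C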
Active and inactive are the calls of the source. How the calls were made is not given here.
I would appreciate it if you answered using one of these outcomes: 1 = active, 0 = inactive

O=C(N/N=C/c1ccc[nH]1)c1sc2ccccc2c1Cl
1

Tell me the recorded outcome of this test for `Cc1ccc2c(c1C)-c1c(ccc(C)c1C)C(=O)C2=O` . 1

Tell me the recorded outcome of this test for `Clc1ccccc1C(c1ccccc1)(c1ccccc1)n1ccnc1` . 1

Tell me the recorded outcome of this test for `O=c1c(CO)cc(CO)cc(CO)c1O` . 1

Tell me the recorded outcome of this test for `Cc1csc2nc(O)c(C(=O)NCCCc3ccccc3)c(=O)n12` . 1

Tell me the recorded outcome of this test for CC1(C(=O)OCC(=O)Nc2ccc3ccccc3c2)CC1(Cl)Cl (stereo not drawn) . 1

Tell me the recorded outcome of this test for CC(C)C(=O)NC(c1cccc([N+](=O)[O-])c1)c1ccc2cccnc2c1O (stereo not drawn) . 1

Tell me the recorded outcome of this test for `Cc1c(C(=O)NCCSCc2cccc(C(F)(F)F)c2)cnn1-c1ccc(Cl)cc1` . 1

Tell me the recorded outcome of this test for CCCCCCC(Cl)(Cn1ccnc1)c1ccccc1 (stereo not drawn) . 1

Tell me the recorded outcome of this test for CC1CCc2c(C(=O)Nc3ccccn3)csc2C1 (stereo not drawn) . 1

Tell me the recorded outcome of this test for `COc1cc2cnc(-c3ccccc3)c(C(=O)c3ccc(F)cc3)c2cc1OC` . 1

Tell me the recorded outcome of this test for `Cc1ccc(NC2=C(NC(=O)c3ccccc3)C(=O)c3ccccc3C2=O)cc1Cl` . 1

Tell me the recorded outcome of this test for CC1(S(=O)(=O)O)CC(=O)c2ccccc2C1=O (stereo not drawn) . 0

Tell me the recorded outcome of this test for CCC(NC(=S)NCc1ccc(F)cc1)c1ccc(C(C)C)cc1 (stereo not drawn) . 1

Tell me the recorded outcome of this test for `CCOc1cc([N+](=O)[O-])cc(/C=N/NC(=O)c2c(-c3ccccc3)noc2C)c1O` . 1

Tell me the recorded outcome of this test for `CN(C)c1ccc(C=c2c3ccccc3n3c2cc(-c2ccc(Cl)cc2)[n+]3C)cc1` . 1

Tell me the recorded outcome of this test for `CCc1oc2ccccc2c1C(=O)c1cc(Br)c(O)c(Br)c1` . 1

Tell me the recorded outcome of this test for `O=C(N/N=C(\c1ccccc1)c1cccnc1)c1cccc(F)c1` . 1

Tell me the recorded outcome of this test for Cc1nn(CCC#N)c(N)c1C1(O)C(=O)Nc2c(Cl)cc(Cl)cc21 (stereo not drawn) . 1

Tell me the recorded outcome of this test for `Nc1c(Cl)ncnc1N/N=C/c1ccc2ccccc2n1` . 1

Tell me the recorded outcome of this test for `O=c1c2ccccc2nc(-c2ccc(-c3ccccc3)cc2)n1-c1ccncc1` . 1

Tell me the recorded outcome of this test for `CC(C)(C)c1cc(-c2nc(N)nc(N)n2)c(O)c(C(C)(C)C)c1` . 1

Tell me the recorded outcome of this test for `O=C(N/N=C/c1sc(N2CCOCC2)nc1-c1ccccc1)c1ccccc1O` . 1
